- assayed.target: human HDAC3/SMRT heterodimer (Homo sapiens (Human), UniProt O15379)
- Sequence (O15379 whole entry): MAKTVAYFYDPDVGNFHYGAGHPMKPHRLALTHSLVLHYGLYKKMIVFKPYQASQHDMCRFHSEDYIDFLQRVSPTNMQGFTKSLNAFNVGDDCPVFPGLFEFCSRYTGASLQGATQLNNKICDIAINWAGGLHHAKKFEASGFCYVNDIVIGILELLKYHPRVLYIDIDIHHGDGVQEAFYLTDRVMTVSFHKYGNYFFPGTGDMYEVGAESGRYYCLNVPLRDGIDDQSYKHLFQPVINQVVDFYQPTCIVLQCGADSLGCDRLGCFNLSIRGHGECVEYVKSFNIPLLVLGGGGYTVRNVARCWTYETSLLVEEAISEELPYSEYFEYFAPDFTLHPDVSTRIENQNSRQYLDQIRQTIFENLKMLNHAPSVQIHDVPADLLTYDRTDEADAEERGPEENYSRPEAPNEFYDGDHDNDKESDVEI
- Sequence (Q9Y618 1-899 partner): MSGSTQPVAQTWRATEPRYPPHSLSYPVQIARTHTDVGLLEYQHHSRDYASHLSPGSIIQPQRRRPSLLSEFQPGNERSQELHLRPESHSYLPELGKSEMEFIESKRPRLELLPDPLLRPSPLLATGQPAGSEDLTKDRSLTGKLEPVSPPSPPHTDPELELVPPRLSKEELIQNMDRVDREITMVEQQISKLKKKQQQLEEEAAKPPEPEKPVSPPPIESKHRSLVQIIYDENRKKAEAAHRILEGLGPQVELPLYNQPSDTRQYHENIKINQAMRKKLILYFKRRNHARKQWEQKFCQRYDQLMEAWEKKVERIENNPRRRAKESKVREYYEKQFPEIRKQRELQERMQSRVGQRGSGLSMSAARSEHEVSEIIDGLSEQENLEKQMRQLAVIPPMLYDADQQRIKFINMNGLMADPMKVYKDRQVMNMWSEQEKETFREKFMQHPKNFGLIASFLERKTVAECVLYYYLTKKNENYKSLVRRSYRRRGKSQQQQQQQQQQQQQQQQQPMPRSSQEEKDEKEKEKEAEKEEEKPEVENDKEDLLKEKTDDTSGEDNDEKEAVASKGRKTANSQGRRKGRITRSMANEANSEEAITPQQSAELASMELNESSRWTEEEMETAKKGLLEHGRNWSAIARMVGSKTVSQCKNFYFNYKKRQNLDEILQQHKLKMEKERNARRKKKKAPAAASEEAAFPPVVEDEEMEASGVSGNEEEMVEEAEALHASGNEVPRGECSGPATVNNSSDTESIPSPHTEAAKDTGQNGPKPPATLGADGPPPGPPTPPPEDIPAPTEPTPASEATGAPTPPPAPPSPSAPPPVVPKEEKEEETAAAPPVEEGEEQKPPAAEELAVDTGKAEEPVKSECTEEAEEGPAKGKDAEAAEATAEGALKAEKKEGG
- method.notes: biochemical
property.measured: IC50 (nM)
Quick note: give the figure in nM, leave out the unit.

Measured IC50 of Cc1ccc2cc(-c3cnc(C(N)CCCCCC(=O)c4ncco4)o3)ccc2n1 (centres unmarked) [Example 26] : 13

// field: IC50; key: COC(=O)N[C@@H](CCCCCC(=O)c1ncco1)c1ncc(-c2cc3ccc(C)nc3cc2OC)[nH]1 [Example 86] ; value = 1.5

Field IC50 (entry COc1cc2nc(C)ccc2cc1-c1cnc([C@H](CCCCCC(=O)c2ccon2)NC(=O)[C@H]2CC23CCN(C)CC3)[nH]1 [Example 110] ) reads 0.18

COc1cc2nc(C)ccc2cc1-c1cnc([C@H](CCCCCC(=O)c2ncco2)NC(=O)C2CCN(C)CC2)[nH]1 [Example 98] has a reported IC50 of 0.64

Lab book: IC50 of O=C(CCCCC[C@H](NC(=O)c1cncs1)c1[nH]c(-c2ccc(F)cc2)nc1Cl)c1ncco1 [Example 88] noted as 0.37

Reported IC50 for CCN1CCC2(CC1)C[C@@H]2C(=O)N[C@@H](CCCCCC(=O)c1ncco1)c1[nH]c(-c2ccc(F)cc2)nc1Cl [Example 97] was 0.066

Entry O=C1NC(CCCCCC(=O)c2ncco2)(c2nc(-c3ccc(F)cc3)c[nH]2)CO1 (centres unmarked) [Example 66] ; IC50 = 3.1

Form field IC50, entry COc1cc2nc(C)ccc2cc1-c1cnc([C@H](CCCCCC(=O)c2ncco2)Nc2ncccn2)[nH]1 [Example 85] : 1.5

The compound listed as O=C1CC[C@@](CCCCCC(=O)c2ccon2)(c2nc(-c3ccccc3F)c[nH]2)N1 [Example 69] shows IC50 equal to 0.79

IC50 for COc1nc2ccccc2cc1-c1cnc(CCCCCCC(=O)c2ncco2)[nH]1 [Example 73] is 4.2

For record COc1cc2ncccc2cc1-c1c[nH]c([C@@H](N)CCCCCC(=O)c2ncco2)n1 [Example 23] the listed IC50 is 1.8
